# Test system: Phospholipase A2 group VI, Homo sapiens
# Procedure summary: Inhibition of human calcium-independent group-6A iPLA2 using Triton-X-100/PAPC/arachidonyl-1-14C PAPC substrate mixed micelles at 0.091 mole_fraction by modified dole assay relative to control
Examples of molecules with documented inhibition follow.
Answer format: numeric, % implied, no suffix.

Examples with answers:
# Smiles representation, inhibition, %
records = [
    ("CCCC[C@@H](COCC(=O)OC(C)(C)C)NC(=O)C(=O)CCCCc1ccc2ccccc2c1", 88.4),
    ("CCCC[C@@H](COCC(=O)OCC)NC(=O)C(=O)CCCCc1ccc(OC)cc1", 75.2),
    ("CCCC[C@H](NC(=O)C(=O)CCCCc1ccc(OC)cc1)C(=O)NCCC(=O)OC(C)(C)C", 83.1),
]

So what does the record say about inhibition for CCCC[C@H](NC(=O)C(=O)CCCCc1ccc(OC)cc1)C(=O)OC(C)(C)C ? 60

So what does the record say about inhibition for COc1ccc(CCCCC(=O)C(=O)N[C@@H](CC(C)C)C(=O)NCCCC(=O)OC(C)(C)C)cc1 ? 92.8
